assay: Toxicity, 24 hr. LD50 (PO); conditions: in vivo
measurement-type: LD50 at 24 h (mg/kg)
Give bare numbers, in mg/kg.

>>> print(df.to_string())
                           smiles_structure  measurement_type  test_result
0  Cl.Cl.NCC#CC1=CCN=C(c2ccccc2)c2cc(Cl)ccc21      LD50 at 24 h          500

--- query ---
Returns the measured LD50 at 24 h for the input molecule. Input: Cl.Cl.NCC#CC1=CCN=C(c2ccccc2F)c2cc(Cl)ccc21 500
